COX15 protein expression listing for selected compounds.
test system: Panc-1 cells; test: Protein expression using high content cell imaging system, and efficacy score; format: cell-based; conditions: 6 hours post treatment; control 627; further: test concentration or dose not given here
# number only, unit fluorescence units dropped from output

// below: answered compounds
compound=CN1CC[C@H](c2c(O)cc(O)c3c(=O)cc(-c4ccccc4Cl)oc23)[C@H](O)C1 quantity="COX15 protein expression" units="fluorescence units" measurednumber=689
compound=Nc1ccn([C@@H]2O[C@H](CO)[C@@H](O)C2(F)F)c(=O)n1 quantity="COX15 protein expression" units="fluorescence units" measurednumber=1100

Value lookup for COX15 protein expression; key = CC[C@H](CO)Nc1nc(NCc2ccccc2)c2ncn(C(C)C)c2n1 936

Then CN1CC[C@@H](c2c(O)cc(O)c3c(=O)cc(-c4ccc(C(F)(F)F)cc4Cl)oc23)[C@@H]1CO.Cl (relative stereo) [P1446A] ? 628

Entry to check: CN1CC[C@@H](c2c(O)cc(O)c3c(=O)cc(-c4ccccc4Cl)oc23)[C@@H]1CO.Cl (relative stereo) 907
